Recorded T/C by entry
System: L1210 leukemia ip in BDF1 mice, survival T/C
Experiment: NCI In Vivo Anticancer Drug Screen. Data for tumor model L1210 Leukemia (intraperitoneal) in B6D2F1 (BDF1) mice
Conditions: endpoint: mean survival time; dose: 200.0 mg/kg/injection; schedule: Q04DX003 (ip); vehicle: saline; higher = longer survival
Inconclusive results and toxic doses are left out. Peptide text beside a SMILES is read from it. * marks the point of attachment. Cbz = O=C(OCc1ccccc1)*

Example results:
CC(Br)C1(c2cccc([N+](=O)[O-])c2)OCCO1 (configuration not stated) :: 100 % of control
COC(=O)CNC(=O)C(CC(C)C)NC(=O)C(CC(C)C)NC(=O)C(C)NC(=O)OCc1ccccc1 (configuration not stated) (Cbz-ALLG-OMe; configuration not given here) :: 98 % of control
CN1CCCCCC1=O :: 111 % of control
O=C(NC1(C(=O)O)CCCC1)C(F)(F)F :: 118 % of control
CCOC(=O)c1c[nH]c2ccc(OC)cc2c1=O :: 102 % of control

Which measured T/C value corresponds to O=S(=O)(NC1C2CC3C1N3N2)c1ccccc1 (configuration not stated) ?
98 % of control

Which measured T/C value corresponds to `N=C(N)SCc1c2ccccc2cc2ccccc12` ?
102 % of control

====

Recorded T/C by entry
System: L1210 leukemia ip in BDF1 mice, survival T/C
Experiment: NCI In Vivo Anticancer Drug Screen. Data for tumor model L1210 Leukemia (intraperitoneal) in B6D2F1 (BDF1) mice
Conditions: endpoint: mean survival time; dose: 100.0 mg/kg/injection; schedule: Q04DX003 (ip); vehicle: saline; higher = longer survival
Inconclusive results and toxic doses are left out.

Nc1ccn(CC(=O)N2CCC3(CC2)SSC2(CCN(C(=O)Cn4ccc(N)nc4=O)CC2)S3)c(=O)n1 :: 97 % of control
C=CCC(CC)(C(=O)OCC)C(=O)OCC :: 102 % of control
O=c1[nH]cnc2ccnn12 :: 97 % of control
CC(=O)NC(=O)NC(C)=O :: 99 % of control
O=C(O)c1ccc(Br)cc1 :: 89 % of control

Which measured T/C value corresponds to `NC(N)=NCCCC(=O)O` ?
110 % of control

Which measured T/C value corresponds to `COc1ccc2nc3cc(Cl)ccc3c(NCCO)c2c1` ?
96 % of control

====

Recorded T/C by entry
System: L1210 leukemia ip in BDF1 mice, survival T/C
Experiment: NCI In Vivo Anticancer Drug Screen. Data for tumor model L1210 Leukemia (intraperitoneal) in B6D2F1 (BDF1) mice
Details: endpoint: mean survival time; dose: 100.0 mg/kg/injection; schedule: Q01DX009 (ip); vehicle: saline; higher = longer survival
Inconclusive results and toxic doses are left out.

NNC(=O)[C@H]1CC[C@H]1C(=O)NN :: 109 % of control
CCOC(=O)c1c[nH]c2ccc(OC)cc2c1=O :: 96 % of control
CC12CC3CC(C)(C1)CC(OCCN)(C3)C2 :: 92 % of control
COc1ccc(NC(=O)Nc2cc(Cl)ccc2OC)c(Cl)c1 :: 100 % of control

Which measured T/C value corresponds to `CC(C)NNCCO` ?
103 % of control

Which measured T/C value corresponds to `CCOC(=O)NC(=S)NN` ?
105 % of control

Which measured T/C value corresponds to NC(N)=N/N=C(/C=N/N=C(N)N)C(O)C(O)CO (configuration not stated) ?
98 % of control

====

Test system: L1210 leukemia ip in BDF1 mice, survival T/C
Test: NCI In Vivo Anticancer Drug Screen. Data for tumor model L1210 Leukemia (intraperitoneal) in B6D2F1 (BDF1) mice
Conditions: endpoint: mean survival time; dose: 200.0 mg/kg/injection; schedule: Q01DX009 (ip); vehicle: Klucel (hydroxypropylcellulose) (HPC); higher = longer survival
Toxic doses and inconclusive results are not listed.
Recorded T/C by entry

Example results:
CN(Cc1ccccc1)C(=O)c1cccc([N+](=O)[O-])c1 :: 100 % of control
OCc1cc(-c2ccc(Cl)cc2)nc2c(C(F)(F)F)cccc12 :: 111 % of control
CCCCCCCCCCCCSCCNC(=O)CCl :: 92 % of control
NC(=O)c1ccccc1OC(=O)Nc1ccc(F)c([N+](=O)[O-])c1 :: 104 % of control
COc1ccc(/C=N/NC(=O)c2ccc(Cl)c(Cl)c2)cc1 :: 100 % of control

Which measured T/C value corresponds to `CCCCCCCCCC(=O)CC` ?
96 % of control

Which measured T/C value corresponds to `CC(=O)/C=C/c1ccc(O)cc1` ?
96 % of control

Which measured T/C value corresponds to CC(=O)NC1CCC(CC2CCCCC2)CC1 (stereo unspecified) ?
116 % of control

Which measured T/C value corresponds to `Cc1ccc(-c2cc(-c3ccccc3)no2)cc1` ?
95 % of control

Which measured T/C value corresponds to `O=C(Nc1cccc(Cl)c1Cl)N1CCN(c2ccccc2)CC1` ?
96 % of control

====

System: L1210 leukemia ip in BDF1 mice, survival T/C
Assay: NCI In Vivo Anticancer Drug Screen. Data for tumor model L1210 Leukemia (intraperitoneal) in B6D2F1 (BDF1) mice
Details: endpoint: mean survival time; dose: 100.0 mg/kg/injection; schedule: Q01DX001 (ip); vehicle: saline; higher = longer survival
Inconclusive results and toxic doses are left out.
Observation type: T/C

CN(C)C1(C(=O)O)c2ccccc2-c2ccccc21 :: 100 % of control
CS(=O)(=O)n1c(C(Cl)c2ccccc2)nc2ccccc21 (centres undefined) :: 102 % of control
CC(=O)N1CC=C2c3c1ccc(C)c3C(=O)C2C(N)=O (centres undefined) :: 97 % of control

Which measured T/C value corresponds to `CCC[CH2][Sn]1([CH2]CCC)[O]C(=O)c2cccc([N+](=O)[O-])c2C(=O)[O]1` ?
117 % of control

Which measured T/C value corresponds to CCCC(NC(C)=O)C(=O)O (centres undefined) ?
94 % of control

Which measured T/C value corresponds to `Cc1ccc(S(=O)(=O)N(CC(=O)O)c2ccccc2-c2ccccc2)cc1` ?
100 % of control

Which measured T/C value corresponds to `Cn1nnc(CCO)n1` ?
95 % of control

Which measured T/C value corresponds to OC1CCCCC1Br (centres undefined) ?
98 % of control

Which measured T/C value corresponds to `O=C(O)c1cscn1` ?
93 % of control

Which measured T/C value corresponds to `CS(=O)(=O)OCCN(CCOS(C)(=O)=O)c1ccc([N+](=O)[O-])c(F)c1` ?
112 % of control

Which measured T/C value corresponds to `COc1ccc(CCN(C)C(c2ccccc2)c2ccccc2)cc1OC` ?
100 % of control

Which measured T/C value corresponds to `O=C(Nc1ccc(S(=O)(=O)O)cc1)c1ccc([N+](=O)[O-])cc1` ?
103 % of control

Which measured T/C value corresponds to `CCOC(=O)CC(=O)O` ?
91 % of control

Which measured T/C value corresponds to CC1OC=CC(O)C1O (centres undefined) ?
100 % of control

====

Test system: L1210 leukemia ip in BDF1 mice, survival T/C
Assay: NCI In Vivo Anticancer Drug Screen. Data for tumor model L1210 Leukemia (intraperitoneal) in B6D2F1 (BDF1) mice
Details: endpoint: mean survival time; dose: 200.0 mg/kg/injection; schedule: Q01DX001 (ip); vehicle: saline with Tween-80; higher = longer survival
Inconclusive results and toxic doses are left out.
Observation type: T/C

Cc1cc2c(-c3ccccc3)c(C(=O)c3ccccc3)c(C(=O)c3ccccc3)c(-c3ccccc3)c2cc1C :: 89 % of control

Which measured T/C value corresponds to CCCCOP(=O)(OCCCC)C(C)c1ccccc1 (stereo not given) ?
94 % of control

Which measured T/C value corresponds to `COc1cccc(NC(=O)NC(C)(C)C)c1` ?
100 % of control

Which measured T/C value corresponds to `Cc1ccc(C)c(NC(=O)Nc2nccs2)c1` ?
104 % of control

Which measured T/C value corresponds to O=C1c2ccccc2CC/C(=N\O)C1c1ccccc1 (stereo not given) ?
98 % of control

Which measured T/C value corresponds to `CCOCc1cnc(C)nc1N` ?
94 % of control

Which measured T/C value corresponds to `O=C(CSc1cc(Cl)c(Cl)cc1Cl)Nc1ccc(Cl)cc1Cl` ?
93 % of control

Which measured T/C value corresponds to `CCCCCSP(=S)(C(C)C)C(C)C` ?
93 % of control

Which measured T/C value corresponds to `CN(C)N=Nc1cc(Cl)cc(C(N)=O)c1Cl` ?
101 % of control

Which measured T/C value corresponds to `COCc1ccc(C(=O)Nc2c(N)ncnc2N)cc1` ?
102 % of control

====

Tested on: L1210 leukemia ip in BDF1 mice, survival T/C
Experiment: NCI In Vivo Anticancer Drug Screen. Data for tumor model L1210 Leukemia (intraperitoneal) in B6D2F1 (BDF1) mice
Details: endpoint: mean survival time; dose: 50.0 mg/kg/injection; schedule: Q04DX003 (ip); vehicle: saline with Tween-80; higher = longer survival
Inconclusive results and toxic doses are left out.
Recorded T/C by entry

Example results:
C(=C\c1cccnc1)/c1ccncc1 :: 97 % of control
COC(=O)CCC1([N+](=O)[O-])CCCCC1 :: 102 % of control
O=C(COc1ccc(Cl)c(Cl)c1)NCc1ccc[n+](Cc2ccc(S(=O)(=O)F)cc2Cl)c1 :: 101 % of control

Which measured T/C value corresponds to CC1CCC(C)C1NC1=NCCO1 (stereo unspecified) ?
93 % of control

Which measured T/C value corresponds to `ClCCN(CCCl)CCN1c2ccccc2Sc2ccccc21` ?
92 % of control

Which measured T/C value corresponds to CCOC(=O)C(OCc1ccccc1)(C(=O)O)C(C)C (stereo unspecified) ?
97 % of control
